Test: Saturated water solubility
Type: physicochemical
Conditions: 37 °C, water, thermodynamic from solid
property name: solubility (µg/mL)
One number for each entry, in µg/mL.

compound CCCCOC(=O)COc1cc(-c2ccccc2S(C)(=O)=O)ccc1CCNS(=O)(=O)c1cc(C(=N)NO)ccc1O.Cl.O [Reference Example 2] , solubility observed: 270

----------
Assay: Saturated water solubility
Type: physicochemical
Details: thermodynamic from solid; water, 37° C., highest concentration over time; read-out: Saturated water solubility
Experimental: (Saturated Water Solubility) Approximately 40 mg of test substances is placed in a vessel, and approximately 15 mL of water is added thereto to suspend. The suspensions are warmed at 37° C. with stirring, and approximately 1 mL of aliquots is collected with time. Each of aliquots is filtered through a 0.45 μm filter. […] Five μL of the test solution is analyzed by a high performance liquid chromatography method according to the following conditions. […]
property name: solubility
The answer consists of two parts: a number and, after it, its unit.

Value of measured solubility for the entry "CCCCOC(=O)COc1cc(-c2ccccc2S(C)(=O)=O)ccc1CCNS(=O)(=O)c1cc(C(=N)NO)ccc1O.Cl" : 1.6 mg/mL
